# Test system: GRN mRNA
# assay: GRN mRNA qPCR in SK-N-AS cells transfected with ASOs
# Format: cell-based, human
# settings: Table 4; SK-N-AS, 60 nM; normalized to CO-3772 and CO-1589 (sNTC1)
Oligonucleotides are written 5' to 3', each unit as a sugar letter and its base; * is a phosphorothioate linkage, no mark a phosphodiester; rarer units and linkages stand in square brackets, end groups in braces. Plain capitals give the bases only. e = 2'-O-(2-methoxyethyl) (MOE); [5mC] = 5-methylcytosine; d = 2'-deoxy (DNA)
reported-metric: 60 nM FC (GRN mRNA)

Observe how each entry below is paired with its result.
{"columns": ["substance", "60 nM FC (GRN mRNA)"],
 "data": [
  ["CO-4364: longer ASO based on CO-3423 (antisense eG*eG*eA*e[5mC]*eT*eT*eG*eG*eG*eA*eG*eT*eG*eG*eT*eG*eA*e[5mC]*eT*eG*eA*eA*e[5mC])", "1.3 FC"],
  ["CO-4362: longer ASO based on CO-3423 (antisense eG*eA*e[5mC]*eT*eT*dG*dG*dG*eA*dG*dT*eG*dG*dT*dG*eA*e[5mC]*eT*eG*eA)", "1.1 FC"]
]}

Okay, now this substance:
// CO-4361: longer ASO based on CO-3423 (antisense eG*eA*e[5mC]*eT*eT*dG*dG*dG*dA*dG*dT*dG*dG*dT*dG*eA*e[5mC]*eT*eG*eA) : 60 nM FC (GRN mRNA) value = 1.3 FC
